Cited source: the supplement of paper PMC10567573

B1: GLT8D2 (parent)
chain: QEAKLLHWNGRHKPWDFPSVHNDL

- Variants of: B1
- Procedure summary: protein stability index of a GFP-peptide fusion (GPS, HEK-293T) (PSI 1-6); higher = more stable;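 also: lentivirally expressed fusions sorted by FACS into six bins by GFP to DsRed ratio, PSI derived from sequencing read proportions per bin multiplied by bin number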
- Cond: c terminus: a fixed tail appended
Readout kind: protein stability index
Number only, no unit.

Worked examples, 5 variants total:
D23Q; 2.4
D23P; 2.27
H21V; 2.67
D16L; 2.32
K4L; 2.56

Using the record for `W15S` , report its protein stability index.
3.52

Now give it for `P18I` too.
2.23

Now give it for `P14S` too.
2.68

Now give it for `H7I` too.
2.25

Now give it for `R11F` too.
2.58

Now give it for `D23L` too.
1.48
